The origin of these recorded values is patent US20230145305A1.

- Test system: OCI-LY10 cells
- test.protocol: Cell proliferation assay (MTS) in OCI-LY10 cells
- Format: cell-based
- details: Homo sapiens; inhibition of OCI-LY10 cells proliferation, 72 h incubation, MTS, absorbance at 490 nm; read-out: OCI-LY10 IC50
measured.parameter: IC50 (nM)

a: COc1ccccc1C(=O)NCc1ccc(-c2nn(C3CCCC3)c3c(=O)[nH]nc(N)c23)cc1
b: COc1ccc(F)cc1C(=O)NCc1ccc(-c2nn([C@@H](C)C(F)(F)F)c3c(=O)[nH]nc(N)c23)cc1 [Example 40a]
c: COc1ccc(F)cc1C(=O)NCc1ccc(-c2nc(C3CCCC3)n3ccnc(N)c23)cc1
d: COc1ccc(F)cc1C(=O)NCc1ccc(-c2nn([C@H]3CCC[C@H]3F)c3c(=O)[nH]nc(N)c23)cc1
Reorder the records above by IC50 so that values decrease. Present the labels in the sequence the task asks for.
a, b, c, d
(a: 68 nM, b: 7 nM, c: 2 nM, d: 1 nM)
